# target-under-test: Neuropilin-1 (Homo sapiens)
# method-notes: NRP-1/CendR peptide interaction modulators – biochemical, fluorescence polarization, uHTS, primary screen (AID 602438)
# setup-conditions: FAM-RPARPAR peptide binding to NRP-1, fluorescence polarization; at 25 µM
About 3,100 (0.86%) of roughly 360,000 compounds were called active.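 How the source made its calls: active means inhibition or corrected inhibition above about 18%, plus a signal ratio from 0.5 to 1.5 (limit read from the data, passing the limit was not always enough); inactive means the rest.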 The list comes from a sample in which actives are over-represented; it also holds close analogues and randomly drawn compounds.
Labels: TRUE (active), FALSE (inactive)

[[record]]
compound = "CCOC(=O)Nc1sc(C(=O)N(C)C)c(C)c1C(=O)OCC"
target_under_test = "Neuropilin-1 (Homo sapiens)"
qualitative_label = "TRUE"

[[record]]
compound = "CCOC(=O)c1c(NC(=O)COC(=O)c2ccc(S(=O)(=O)C(F)F)cc2)sc(C(=O)N(C)C)c1C"
target_under_test = "Neuropilin-1 (Homo sapiens)"
qualitative_label = "FALSE"

[[record]]
compound = "O=C(O)C1CCCN(CCC=C(c2ccccc2)c2ccccc2)C1 (centres undefined)"
target_under_test = "Neuropilin-1 (Homo sapiens)"
qualitative_label = "FALSE"

[[record]]
compound = "CCOC(=O)C1=C(c2ccccc2)NC(=O)NC1c1cc(OC)c(OC)cc1OC (centres undefined)"
target_under_test = "Neuropilin-1 (Homo sapiens)"
qualitative_label = "FALSE"


---

# target-under-test: Neuropilin-1 (Homo sapiens)
# method-notes: NRP-1/CendR peptide interaction modulators – biochemical, fluorescence polarization, uHTS, primary screen (AID 602438)
# setup-conditions: FAM-RPARPAR peptide binding to NRP-1, fluorescence polarization; at 25 µM; hits give high values
About 3,100 (0.86%) of roughly 360,000 compounds were called active. The sample holds actives, similar compounds and a random draw of the others, so the mix is not that of the screen.
Quick list: inhibition per entry.
quantity-measured: inhibition (%)

[[record]]
compound = "CNc1nc(=O)n(C2CCCO2)cc1C (stereo not given)"
value_unit = "%"
reported_result = -12.3

[[record]]
compound = "COc1cc2c(=O)n(C)c3ccccc3c2cc1OC"
value_unit = "%"
reported_result = 0

[[record]]
compound = "C=CCNC(=O)COc1coc(CN2CCN(Cc3ccccc3)CC2)cc1=O"
value_unit = "%"
reported_result = 2

[[record]]
compound = "CCOC(=O)c1cccnc1NC(=O)c1ccncc1"
value_unit = "%"
reported_result = -9.5

[[record]]
compound = "CCOC(=O)C1(Cc2ccccc2C)CCCN(C(=O)CN2C(=O)CSC2=O)C1 (stereo not given)"
value_unit = "%"
reported_result = 5.9

[[record]]
compound = "CCOC(=O)c1ccc(NC(=S)N2CCN(c3ccccn3)CC2)cc1"
value_unit = "%"
reported_result = 11.2

[[record]]
compound = "COc1cc([N+](=O)[O-])ccc1NC(=S)N1CCN(c2ccccn2)CC1"
value_unit = "%"
reported_result = 32.1

[[record]]
compound = "Cc1noc(C)c1CSc1nnc2ccc3ccccc3n12"
value_unit = "%"
reported_result = 10.5

[[record]]
compound = "CCOCc1nnc(NC(=O)CSc2ccc(C)cc2)s1"
value_unit = "%"
reported_result = -1

[[record]]
compound = "COc1ccc(N2CCN(C(=O)[C@@H](NC(=O)c3cc(OC)cc(OC)c3)C(C)C)CC2)cc1"
value_unit = "%"
reported_result = 4

[[record]]
compound = "CCN(CC(=O)N1CCCC1)S(=O)(=O)c1ccc(F)cc1"
value_unit = "%"
reported_result = 9.2

[[record]]
compound = "Cc1ccc(C)c(NC(=O)C(c2ccccc2)N2CCN(CC(=O)NC3CC3)CC2)c1 (stereo not given)"
value_unit = "%"
reported_result = -1.3

[[record]]
compound = "CCC(C)(C)NC(=O)c1cc([N+](=O)[O-])ccc1N1CCCCC1"
value_unit = "%"
reported_result = 8.9

[[record]]
compound = "Cc1ccc(NC2CCCN(C(=O)CCc3cn[nH]c3)C2)cc1C (stereo not given)"
value_unit = "%"
reported_result = 5.4

[[record]]
compound = "COc1ccc(C(=O)COC(=O)c2ccc([N+](=O)[O-])s2)cc1OC"
value_unit = "%"
reported_result = 24.3

[[record]]
compound = "CCN(CC)S(=O)(=O)c1ccc(C(=O)N2CCN(C3=NS(=O)(=O)c4ccccc43)CC2)cc1"
value_unit = "%"
reported_result = -0.8

[[record]]
compound = "COc1ccc(-c2c(C#N)cnc(C)c2C)c(O)c1OC"
value_unit = "%"
reported_result = 37.9

[[record]]
compound = "O=C(O)C1CCN(c2ccc([N+](=O)[O-])cc2[N+](=O)[O-])CC1"
value_unit = "%"
reported_result = 27.4

[[record]]
compound = "CCN(CC)C(=O)COc1coc(CN2CCN(Cc3ccccc3)CC2)cc1=O"
value_unit = "%"
reported_result = 0.6

[[record]]
compound = "CCN(C[C@H]1N[C@@](CC)(C(=O)OC)[C@H]2C(=O)N(C)C(=O)[C@@H]12)C(=O)Nc1ccc(F)cc1"
value_unit = "%"
reported_result = 33.4

[[record]]
compound = "O=C(Nc1nnc(COc2ccccc2)s1)Nc1ccccc1F"
value_unit = "%"
reported_result = -10.8

[[record]]
compound = "CC(C)Cc1nc(Nc2ccc(S(=O)(=O)N3CCCC3)cc2)c2nnn(Cc3ccccc3)c2n1"
value_unit = "%"
reported_result = -9.8

[[record]]
compound = "O=C(CN1C(=O)NC(Cc2c[nH]c3ccccc23)C1=O)Nc1ccccc1C(F)(F)F (stereo not given)"
value_unit = "%"
reported_result = -6.7

[[record]]
compound = "COc1cc(OC)cc(C(=O)N[C@H](C(=O)NNC(=O)c2ccc(Br)cc2)C(C)C)c1"
value_unit = "%"
reported_result = 22.8

[[record]]
compound = "COc1cc(OC)c2c(-c3cccc(-c4cccc(N)c4)c3)cc(=O)oc2c1"
value_unit = "%"
reported_result = -8.2

[[record]]
compound = "N#CC(C(N)=O)=C1CCC2(CC1)OCCCCO2"
value_unit = "%"
reported_result = -11

[[record]]
compound = "CCOC(=O)c1cc(NC(=O)c2ccc(Cl)cc2)c(=O)oc1-c1ccccc1"
value_unit = "%"
reported_result = 24.4

[[record]]
compound = "COc1ccc(N(CC(=O)NCCSCc2cccc(Cl)c2)S(C)(=O)=O)cc1"
value_unit = "%"
reported_result = -7.7

[[record]]
compound = "CC(NC(=O)c1cc2cc(Cl)ccc2oc1=N)c1ccccc1 (stereo not given)"
value_unit = "%"
reported_result = -11

[[record]]
compound = "COc1ccc(C(=O)NC2CC(C)(C)NC(C)(C)C2)cc1OC"
value_unit = "%"
reported_result = -3.8

[[record]]
compound = "O=C(c1ccc(F)cc1)n1c(=S)nc2ccccn21"
value_unit = "%"
reported_result = -0.8

[[record]]
compound = "O=C(OCC(=O)N1CCN(c2ccccc2)CC1)c1ccc([N+](=O)[O-])s1"
value_unit = "%"
reported_result = -3.7

[[record]]
compound = "Cc1cc(Nc2ccc(C)c(C)c2)n2ncnc2n1"
value_unit = "%"
reported_result = 4.8

[[record]]
compound = "Cn1cccc1Cc1nnc(SCC(=O)NCc2ccc3c(c2)OCO3)n1CCc1ccccc1"
value_unit = "%"
reported_result = -7.4

[[record]]
compound = "CCNC(=O)N(CC)C[C@H]1N[C@@](CC)(C(=O)OC)[C@H]2C(=O)N(Cc3ccccc3)C(=O)[C@@H]12"
value_unit = "%"
reported_result = -9.5

